STUDY_SYSTEM: Poly(A)-specific ribonuclease PARN (Homo sapiens)
Sequence (O95453 whole entry): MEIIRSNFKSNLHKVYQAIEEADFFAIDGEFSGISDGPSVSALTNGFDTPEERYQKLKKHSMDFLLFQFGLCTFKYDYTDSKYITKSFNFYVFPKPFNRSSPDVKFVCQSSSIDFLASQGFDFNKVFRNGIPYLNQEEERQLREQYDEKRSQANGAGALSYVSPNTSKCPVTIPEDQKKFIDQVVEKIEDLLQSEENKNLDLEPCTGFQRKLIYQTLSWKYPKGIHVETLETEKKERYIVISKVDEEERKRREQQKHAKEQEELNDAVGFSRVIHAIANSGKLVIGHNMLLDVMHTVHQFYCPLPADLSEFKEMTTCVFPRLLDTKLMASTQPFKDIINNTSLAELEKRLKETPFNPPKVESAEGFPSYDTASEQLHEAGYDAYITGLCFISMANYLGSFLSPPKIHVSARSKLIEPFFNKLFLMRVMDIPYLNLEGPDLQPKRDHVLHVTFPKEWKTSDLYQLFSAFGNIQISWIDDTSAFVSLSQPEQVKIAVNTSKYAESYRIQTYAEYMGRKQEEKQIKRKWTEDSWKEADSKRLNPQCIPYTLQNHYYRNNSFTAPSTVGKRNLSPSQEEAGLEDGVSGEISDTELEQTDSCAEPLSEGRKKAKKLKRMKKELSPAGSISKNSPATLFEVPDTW
Reported pKi is given for each of the following molecules.
// pKi is dimensionless: -log10 of concentration (M)

Use these answered entries as a reference point.
MOLECULE | STUDY_SYSTEM | PARAMETER | RECORDED_MEASUREMENT
Nc1ccn(C2OC(CO)C(O)C(F)C2O)c(=O)n1 (stereo not drawn) [Nucleoside, C6] | Poly(A)-specific ribonuclease PARN (Homo sapiens) | pKi | 3.19
O=C(Nc1ccn(C2OC(CO)C(O)C(F)C2O)c(=O)n1)c1ccccc1 (stereo not drawn) [Nucleoside, A6] | Poly(A)-specific ribonuclease PARN (Homo sapiens) | pKi | 3.68

The record that follows has no pKi shown yet.
Value lookup for pKi; key = O=C(Nc1ncnc2c1ncn2C1OC(O)C(O)C(F)C1O)c1ccccc1 (stereo not drawn) [Nucleoside, A2]
3.29
